Target: T1, MCSF (Homo sapiens, UniProt P09603)
T1 sequence (P09603 33-255 limits assumed): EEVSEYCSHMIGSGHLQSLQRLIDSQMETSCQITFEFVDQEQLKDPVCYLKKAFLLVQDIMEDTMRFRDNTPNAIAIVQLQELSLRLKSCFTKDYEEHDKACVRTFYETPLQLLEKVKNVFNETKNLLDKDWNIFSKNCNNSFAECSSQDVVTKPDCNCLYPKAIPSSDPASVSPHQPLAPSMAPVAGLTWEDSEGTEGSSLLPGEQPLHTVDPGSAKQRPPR
Test: Biacore analysis of Human Engineered RX1 antibodies, M-CSF immobilized (Example 13)
Type: binding
Settings: Table 11, 25° C.
List of kd values.
Answer shape: numeric part, then the unit.

Request: Which kd reading was recorded for the molecule heRX1-8.G2: Human Engineered RX1: light chain Low + Mod Risk (Kabat) − RAT 54, 55, 56 to SIS, heavy chain Low + Mod Risk (Kabat), Gamma 2 (antibody, V domains shown) VH: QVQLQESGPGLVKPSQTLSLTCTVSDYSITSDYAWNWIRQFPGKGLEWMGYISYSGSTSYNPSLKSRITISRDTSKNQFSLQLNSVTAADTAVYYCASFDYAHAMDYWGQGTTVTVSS VL: EIVLTQSPGTLSVSPGERVTFSCRASQSIGTSIHWYQQKTGQAPRLLIKYASESISGIPDRFSGSGSGTDFTLTISRVESEDFADYYCQQINSWPTTFGQGTKLEIK ?
Response: 0.00148 s⁻¹

Request: Which kd reading was recorded for the molecule heRX1-7.G2: Human Engineered RX1: light chain Low + Mod Risk (Kabat) − RAT54, 55, 56 to SIS, heavy chain Low Risk (Kabat), Gamma 2 (antibody, V domains shown) VH: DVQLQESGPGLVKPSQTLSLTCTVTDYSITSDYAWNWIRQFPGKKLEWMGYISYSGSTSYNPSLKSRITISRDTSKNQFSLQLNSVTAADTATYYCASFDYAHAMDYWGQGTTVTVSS VL: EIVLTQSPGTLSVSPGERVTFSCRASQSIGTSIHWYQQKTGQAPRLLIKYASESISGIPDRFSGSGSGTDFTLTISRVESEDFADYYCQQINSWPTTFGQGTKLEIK ?
Response: 0.00149 s⁻¹

Request: Which kd reading was recorded for the molecule heRX1-4.G2: Human Engineered RX1: light chain Low + Mod Risk (Kabat), heavy chain Low + Mod Risk (Kabat), Gamma 2 (antibody, left off: a dimerising Fc or GST) heavy: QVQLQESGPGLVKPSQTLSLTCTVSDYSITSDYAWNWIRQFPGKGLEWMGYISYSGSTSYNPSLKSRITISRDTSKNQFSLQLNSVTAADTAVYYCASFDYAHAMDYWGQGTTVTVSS light: EIVLTQSPGTLSVSPGERVTFSCRASQSIGTSIHWYQQKTGQAPRLLIKYASERATGIPDRFSGSGSGTDFTLTISRVESEDFADYYCQQINSWPTTFGQGTKLEIKRT ?
Response: 0.00108 s⁻¹
